Target: T1, recombinant extracellular domain of hASIC1a (hASIC1a-ECD) (Homo sapiens, UniProt P78348)
T1 construct: recombinant extracellular domain of hASIC1a(hASIC1a-ECD)
T1 sequence (P78348 67-427 limits assumed): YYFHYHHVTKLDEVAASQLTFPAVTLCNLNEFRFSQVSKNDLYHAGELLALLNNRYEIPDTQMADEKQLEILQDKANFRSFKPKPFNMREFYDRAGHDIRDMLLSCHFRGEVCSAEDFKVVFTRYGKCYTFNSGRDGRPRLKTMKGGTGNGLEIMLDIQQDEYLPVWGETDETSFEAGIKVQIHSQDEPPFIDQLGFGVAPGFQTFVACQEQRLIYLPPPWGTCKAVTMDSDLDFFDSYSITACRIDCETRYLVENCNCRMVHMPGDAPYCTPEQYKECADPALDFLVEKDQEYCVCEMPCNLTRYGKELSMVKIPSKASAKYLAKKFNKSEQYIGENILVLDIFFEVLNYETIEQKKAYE
Test: Biacore T200 binding affinity measurement
Conditions: Biacore T200, hASIC1a immobilized, antibody as analyte
OBSERVABLE: Ka (M⁻¹ s⁻¹)

INSERT INTO measurements (molecule, unit_spec, observed_measurement) VALUES
  ('ASC06-01-IgG1: affinity-matured ASC06 derivative, VH-CDR3 DSYFGYSKGD (SEQ ID NO: 11) (antibody, V domains shown) VH: QVQLQQSGGGLVQPGGSLRLSCAASGFTFSSYAMSWVRQAPGKGLEWVSAISGSGGSTYYADSVKGRFTISRDNSKNTLYLQMNSLRAEDTAVYYCAKDSYFGYSKGDWGQGTLVTVSS VL: QSALTQPASVSGSPGQSITISCTGTSSDVGAYNYVSWYQQQPGKAPKLMIYGVSNRPSGVSNRFSGSKSGNAASLTISGLQAEDEADYYCSSYTSSSTYVFGTGTKLTVLG', 'M⁻¹ s⁻¹', '9.7e+06');
